system: ACHN; experiment: NCI tumour cell line growth inhibition, 48 h
Calls of active or inactive are those of the source. No stated cut-off is given here; in the data, active = GI50 up to about 1.1 µM and inactive = higher.
Entries annotated with measured GI50

Reference set, count: 3
| compound | GI50 |
| --- | --- |
| Cc1ccc([S+]([O-])c2ccccc2[N+](=O)[O-])cc1 (centres undefined) | > 100 µM (inactive) |
| NC(=O)Nc1ccc(S(=O)(=O)Nc2ccc(S(N)(=O)=O)cc2)cc1 | > 100 µM (inactive) |
| CCP(=O)(OC)C1=CCN(C(=O)OCC[Si](C)(C)C)CC1 (centres undefined) | > 100 µM (inactive) |

Given the compound N#CCCN(c1ccc(/C=C2\N=C(Cc3ccccc3)OC2=O)cc1)S(=O)(=O)c1ccccc1 , what is its reported GI50? > 100 µM (inactive)

Any idea what GI50 was measured for CN(C(=O)c1ccc(Cl)s1)C(=S)N(C)C(=O)c1ccc(Cl)s1 ? > 10 µM (inactive)

Item CN(C)CCNC(=O)c1cccc2c(NC(CCCNC(=N)N)C(=O)O)c3ccccc3[n+](C)c12 (centres undefined) has what recorded GI50? 68.7 µM (inactive)
